# Tested on: MS2 coat protein
# procedure.details: apparent KD of MS2 coat protein; designed switch direction (-1 OFF switch, 1 ON switch): 1; higher = weaker reporter binding
# run.parameters: input ligand: FMN 200 uM

input.sequence	units.label	apparent KD of MS2 coat protein
UGUUGUAUUACAGGAUAUCUAUUGUUUUUACUUAGAGAAGGGUAUUCACAUGAGGAUCACCCAUGUAUAUACGAGGAAGUUGUG [JMF's solution 83] (Eterna round: R96, puzzle: Same State NG 1)	nM	39.2
AGUAGUGUAACAUGAGGAUCACCCAUGUAAGAAGAUGUAACCUAGGAUAUGGAUGUUAUGUUUGACCAGAAGGAGGAUUGUUUA [JR_SSNG3_Sub040] (Eterna round: R96, puzzle: Same State NG 3)	nM	22.6
CUGAGCGAUCGAGGAUAUCACGUCGAAUAGACGUGAGAAGGCGAUCAUAACAUGAGGAUCACCCAUGUAUUACAUGAAGCUCAG [SSNG1/4-A1] (Eterna round: R96, puzzle: Same State NG 1)	nM	13.2

====

# Test system: MS2 coat protein
# procedure.details: apparent KD of MS2 coat protein, switch OFF state (with FMN for OFF switches, without FMN for ON switches); designed switch direction (-1 OFF switch, 1 ON switch): 1; higher = weaker reporter binding
# run.parameters: FMN input: 0 or 200 uM; Eterna round: R93 (includes R88 designs)
Class definitions on apparent KD of MS2 coat protein: class A = under 40 nM, class B = from 40 nM up to 70 nM, class C = 70 nM and over

input.sequence	class.assignment
GGAAAUAACAGAGAGGAUAUCCAAAGGAAAACAUGAGGAUCACCCAUGUAAAAGGAAGGAAAUUGGGAGAAGGCUCAAAAUAGAA [salish99-ss2-019]	class A
GGGAGGAAGAGAGAGGAUAUCCAAAGGAAAACAUGAGGAUCACCCAUGUAAAAGGUAGGAAAUUGGGAGAAGGCUCAAGAGAAGG [salish99-ss2-050]	class A
AUAAAACAUGAGGAUCACCCAUGUAGACACGUGGGAGGAUAUACUAGAUCGAAAGAUCUAGUAGAAGGCCUUCGUA [Mat - Same State 1 - JL mod - D94]	class A
AACAAUCUAUCUGAGGAUAUCAUGUAAAAGACAUGAGGAUCACCCAUGUAGCAGGAAACUGCACAUGAGAAGGCAGAUAGAUUGA [SS2: 1124]	class A
GAAAAACAUGAGGAUCACCCAUGUGAAAACUUGGGAGGAUAUACUAAGACGAAAGUCGAAGUAGAAGGCCUAAAAG [Same State 1.4j (Mat - Mod of Eli - )]	class C
UGGAGACAUGAGGAUCACCCAUGUAGAAGGAUGGGAGGAUAUACAAAGACGAGAGUCAGAGUAGAAGGCCUAGGAG [salish99-ss1-188]	class B
AGAAGACAUGAGGAUCACCCAUGUGGGAAUAUGGGAGGAUAUACAAAGACGAGAGUCAGAGUAGAAGGCCUAGGCA [salish99-ss1-111]	class C
CGAAGACAUGAGGAUCACCCAUGUGGGAAUAUGGGAGGAUAUACAAAGACGAGAGUCAGAGUAGAAGGCCUAGGAU [salish99-ss1-105]	class C
CGAAAGGAGAGAGAGGAUAUCCAAAGGAAAACAUGAGGAUCACCCAUGUAGAAGGUAGGAGAUUGGGAGAAGGCUCAAGAUAGAG [salish99-ss2-145]	class C
AAAGACAUGGUGCAGGAUAUAUUAAUAGUCACAUGAGGAUCACCCAUGUUCAUAUAUAUGAACGAGUAGAAGGGCGAUGAAAAAA [SameState2 Malc#6]	class C
AAAAGGCUAAACUAGGAUAUGGGUGUCUAAACAUGAGGAUCACCCAUGUGAUGGCAAAACAAAGCUCAGAAGGAGUGGUAGCCCA [Riquceri]	class B
AACCGGGAGAAGCAGGAUAUUGCCUCUUCAACAUGAGGAUCACCCAUGUAAGUAAAUUGACGAUACAAGAAGGGCUGCUCCUUAC [Raatgees]	class C
AAUAGACAUGAGGAUCACCCAUGUAGAAUUAUGGGAGGAUAUACAAAGACGAGAGUCAGAGUAGAAGGCCUAGGAU [salish99-ss1-149]	class B
AAAAAACAUGAGGAUCACCCAUGUAAAAAAAUGGGAGGAUAUAUGAAAAAAAAAAAAAAAAUAGAAGGCCUGAAAA [same state 11]	class B
CAUCAUGCGCCUAAGGAUAUGUCUCACAAGACAUGAGGAUCACCCAUGUAGAAUAAAUAAACGAUGCAGAAGGUGGAGUGCAUGC [Vetimaor]	class C
AUUCCAACUAGUCAGGAUAUCAGGCGUAAGACAUGAGGAUCACCCAUGUACUUAGUACAAGUAACUGAGAAGGGACAGGGUGUAA [JR_SS002_Sub408]	class A
GGGAGACAUGAGGAUCACCCAUGUGAGAAGAGGCGAGGAUAUCGAAAAAAAAAAAAAAAACGAGAAGGCGCGAGAA [salish99-SS1-003]	class A
AAAAAACAUGAGGAUCACCCAUGUGCAAAAUUCGCAGGAUAUUUUUUUUUUAAAUGAGAGGGAGAAGGGUGUAAAA [Nob's Hobby 22 - Jieux - Same State 1]	class A
AAGAAACAUGAGGAUCACCCAUGUCAAGAGAGACUAGGAUAUCUGAAUUAAUUAAAUUAAGGAGAAGGAGUGAAAA [71%, Same state of confusion2, 2]	class C
AAAAAAUAAAAAAAGGAUAUAAAUGCUAGAACAUGAGGAUCACCCAUGUACUAGCAAAAAAUAAAAAAGAAGGAAAAAUAAAAAA [SS2: MS2 18]	class A
AAAAAACAUGAGGAUCACCCAUGUCAAAAGACGUGAGGAUAUGUACAGACUUCGGUCUGUACAGAAGGCACGAAAA [SS1 - 1037]	class A
AAGAGACAUGAGGAUCACCCAUGUAGGAUUAUGGGAGGAUAUACAAAGACGAGAGUCAGAGUAGAAGGCCUAGGAA [salish99-ss1-129(!)]	class B

Origin of values: the supplement of paper PMC9170038
